Tested on: OVCAR-4 ovarian
assay-name: NCI-60 one-dose screen, 48 h
measurement-parameters: 10 µM unless noted
The panel holds about 83,000 compounds, 20% with a hit somewhere; the sample as a whole holds those more often. Calls of active or inactive are those of the source. The calls were made as follows: active = growth percent below 10; inactive = the rest.
Outcome codes: Y (active), N (inactive)

>>> df
                                   compound  assigned_label
0  Cn1cc(-c2cc3nc(-c4cn(C)c5ncc(Br)cc45)cc(N)n3n2)c2cc(F)ccc21               Y
1  COc1ccc2c(c1)C(Sc1ccc(F)cc1)c1c(nc(N)c(C#N)c1N)O2 (centres undefined)               N
2  O=C(c1ccc(O)cc1)C1[C@H](c2ccc(Cl)cc2)[C@@H](c2ccccc2)NC12C(=O)Nc1ccc(Br)cc12 (some centres undefined)               Y
3  NS(=O)(=O)c1ccc(Nc2nc(N/N=C/c3cc(Br)c(O)c(Br)c3)nc(Nc3ccccc3)n2)cc1               N
